System: KHYG-1 (IL-2 2.5 ng/mL)
PROTOCOL NOTES: drug sensitivity score (DSS) (DSS units); higher = more sensitive; extreme values may be limits of the assay
CONDITION SUMMARY: 72 h
drug sensitivity score overview
MEASUREMENT NAME: drug sensitivity score

> print(dat)
                                   compound   val
1  Nc1ncnc2c1nc(Cl)n2[C@@H]1O[C@H](CO)[C@@H](O)[C@H]1O [8-chloro-adenosine] (max concentration tested 50000 nM)    14
2  COc1cc(Nc2ncc3c(n2)-c2ccc(Cl)cc2C(c2c(F)cccc2OC)=NC3)ccc1C(=O)O [Alisertib] (max concentration tested 10000 nM)  24.4
3  C#Cc1cccc(Nc2ncnc3cc4c(cc23)OCCOCCOCCO4)c1 [Icotinib] (max concentration tested 10000 nM)  0.85
4  CCOC(=O)CCNc1cc(N2CCc3ccccc3CC2)nc(-c2ccccn2)n1 [GSK-J4] (max concentration tested 100000 nM)  21.2
5  Cc1cnc(NC(=O)Nc2cc(Br)c(C)cc2OC[C@@H]2CNCCO2)cn1 [Rabusertib] (max concentration tested 1000 nM)  8.07
6  CN(C)C(=O)c1cc2cnc(Nc3ccc(N4CCNCC4)cn3)nc2n1C1CCCC1 [NVP-LEE011] (max concentration tested 10000 nM)  9.33
